Values compiled from paper PMC8987933.

# test-method-notes: clinical
# condition: male, human, in vivo, 10 mg
measurement-kind: half-life
State the result as a value with its unit after it.

Problem: Tell me half-life reported for CC(C)c1nc(N(C)S(C)(=O)=O)nc(-c2ccc(F)cc2)c1/C=C/[C@@H](O)C[C@@H](O)CC(=O)O
Solution: 373 min
